Taken from patent US20250320312A1.

Items are presented alongside their recorded OD450.
Biological target: T1, Peptide 4: Biotin-AGGGGSGGGGSGGGGSAAA-Tyr-acid (N-terminal biotin; C-terminal acid)
T1 construct: Control peptide without PC
T1 peptide: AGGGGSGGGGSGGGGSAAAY
Test: scFv ELISA
Write it as a number; the unit OD450 goes unstated.

Please review the following examples before continuing.
| BINDER | TEST_RESULT |
| --- | --- |
| PcOxP_DB03_H10 (scFv, V domains shown, scFv in periplasmic extract) VH: EVQLLESGGGLVQPGGSLRLSCAASGFTFDDFYMEWVRQAPGKGLEWVAASRNEANDYTTEYADSVKGRFTISRDNSKNTLYLQMNSLRAEDTAVYYCARDYYGSSYWYFDVWGQGTLVTVSS VL: DIVMTQSPDSLAVSLGERATINCTASESLYSSKHKVHYLAWYQQKPGQPPKLLIYGAGNRYIGVPDRFSGSGSGTDFTLTISSLQAEDVAVYYCAQFYHYPLTFGGGTKVEIK | 0.04 |
| PcOxP_DB04_D01 (scFv, V domains shown, scFv in periplasmic extract) VH: EVQLLESGGGLVQPGGSLRLSCAASGFTFSDYYMEWVRQAPGKGLEWVAASRNKGNDYTTAYADSVKGRFTISRDNSKNTLYLQMNSLRAEDTAVYYCARDYYGSSYWYFDVWGQGTLVTVSS VL: DIVMTQSPDSLAVSLGERATINCTASESLYSSKHKVHYLAWYQQKPGQPPKLLIYGASQRYIGVPDRFSGSGSGTDFTLTISSLQAEDVAVYYCAQFYSYPLTFGGGTKVEIK | 0.06 |

Requested field: OD450. Item: PcOxP_DB02_G05 (scFv, V domains shown, scFv in periplasmic extract) VH: EVQLLESGGGLVQPGGSLRLSCAASGFTFSDFYMEWVRQAPGKGLEWVAASRNKANDYTTEYADSVKGRFTISRDNSKNTLYLQMNSLRAEDTAVYYCARDYYGSSHWYFDVWGQGTLVTVSS VL: DIVMTQSPDSLAVSLGERATINCTASESLYSSKHKLHYLAWYQQKPGQPPKLLIYGASNRYIGVPDRFSGSGSGTDFTLTISSLQAEDVAVYYCGQFYSYPLTFGGGTKVEIK
0.05
